Measured pEC50 by item
Biological target: Delta-type opioid receptor (Homo sapiens)
Sequence (P41143 whole entry): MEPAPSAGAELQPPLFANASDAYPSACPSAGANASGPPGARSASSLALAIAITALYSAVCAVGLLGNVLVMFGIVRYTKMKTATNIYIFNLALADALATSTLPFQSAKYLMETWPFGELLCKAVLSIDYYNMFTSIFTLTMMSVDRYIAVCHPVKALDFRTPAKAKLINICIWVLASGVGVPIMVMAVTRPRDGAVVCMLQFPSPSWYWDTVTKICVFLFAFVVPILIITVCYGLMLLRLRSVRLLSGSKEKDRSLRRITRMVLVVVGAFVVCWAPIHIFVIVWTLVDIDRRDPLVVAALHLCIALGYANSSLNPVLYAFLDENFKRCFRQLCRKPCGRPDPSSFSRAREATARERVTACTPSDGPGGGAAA
Experiment: Concentration necessary to produce 50% of the Emax value, i.e. to stimulate [35S]GTP-gamma-S, binding to recombinant human opioid receptor delta 1 expressed in CHO cells
In plain terms, pEC50 is the concentration in mol/L turned into minus its base-10 logarithm.

Illustrative cases are given below, each with its answer.
Req: Suppose we examine the compound `COc1cccc2c1[C@]13CCN(CC4CC4)[C@H](C2)[C@]1(OCCCc1ccccc1)CCC(=O)C3` ; what pEC50 value has been reported?
Resp: 7.69

Req: Now give it for `COc1cccc2c1[C@]13CCN(CC4CC4)[C@H](C2)[C@]1(OC)CCC(=O)C3` too.
Resp: 5.96

Req: Continue with `O=C1CC[C@@]2(OCCCc3ccccc3)[C@H]3Cc4cccc(O)c4[C@@]2(CCN3CC2CC2)C1`
Resp: 8.10

Req: Same again, this time with O=C1CC[C@@]2(OCCCc3ccccc3)[C@H]3Cc4cccc5c4[C@@]2(CCN3CC2CC2)C1O5 (stereo not given in full)
Resp: 7.06

***
Req: Which pEC50 value is on record for `CCCCOc1cccc2c1[C@]13CCN(CC4CC4)[C@H](C2)[C@]1(OC)CCC(=O)C3` ?
Resp: 5.79

The reported numbers originate from ChEMBL document CHEMBL1148330.
